molecular target: purified recombinant human Aggrecanase-2 (Ag2t-Phe628-Strep) (Homo sapiens); construct: the form used is denoted as Ag2t-Phe628-Strep (MW=41,737); experiment: In vitro fluorescence screen for Aggrecanase-2 inhibitors; type: biochemical; details: Table 3; read-out: Agg 2 IC50
// reported pIC50 for each item listed
# log scale: pIC50 equals minus log10 of the concentration in mol/L

Below, 5 compounds whose answers are already recorded.
>  <compound>
CC(C)(Cc1ccc(F)cc1)NC(=O)[C@H](CCC(=O)O)NC(=O)c1ccc(-c2ccccc2)cc1F

>  <pIC50>
6.70

$$$$
>  <compound>
CC(C)(Cc1ccccc1)NC(=O)[C@H](CCC(=O)O)NC(=O)c1ccc(-c2ccncc2)s1

>  <pIC50>
5.48

$$$$
>  <compound>
CC(C)(Cc1ccc(F)cc1)NC(=O)[C@H](CCC(=O)O)NC(=O)c1ccc(-c2ccsc2)cc1 [Example 8UUUUUUU]

>  <pIC50>
7.22

$$$$
>  <compound>
CC(C)(Cc1ccc(Cl)cc1)NC(=O)[C@H](CCC(=O)O)NC(=O)c1ccc(-c2cccc(F)c2F)cc1 [Example 8EEEEEEE]

>  <pIC50>
6.29

$$$$
>  <compound>
COc1cccc(-c2ccc(C(=O)N[C@@H](CCC(=O)O)C(=O)NC(C)(C)Cc3ccc(F)cc3)cn2)c1

>  <pIC50>
5.28

$$$$

Exercise: Entry COc1cc(CNC(=O)[C@H](CCC(=O)O)NC(=O)c2ccc(-c3ccc(CO)cc3)cc2)cc(OC)c1OC [Example 8LLLLLLL] , system purified recombinant human Aggrecanase-2 (Ag2t-Phe628-Strep) (Homo sapiens): what pIC50 was measured?
Solution: 5.47

Exercise: Entry COc1cc(CNC(=O)[C@H](CCC(=O)O)NC(=O)c2ccc(-c3cccc(OCc4ccccc4)c3)cc2)cc(OC)c1OC [Example 15K] , system purified recombinant human Aggrecanase-2 (Ag2t-Phe628-Strep) (Homo sapiens): what pIC50 was measured?
Solution: 6.42

---

molecular target: purified recombinant human Aggrecanase-1 (rAgg1) (Homo sapiens); assay: In vitro fluorescence screen for Aggrecanase-1 inhibitors; format: biochemical; conditions: Table 1; read-out: Agg1 IC50
Sequence (O75173 213-837): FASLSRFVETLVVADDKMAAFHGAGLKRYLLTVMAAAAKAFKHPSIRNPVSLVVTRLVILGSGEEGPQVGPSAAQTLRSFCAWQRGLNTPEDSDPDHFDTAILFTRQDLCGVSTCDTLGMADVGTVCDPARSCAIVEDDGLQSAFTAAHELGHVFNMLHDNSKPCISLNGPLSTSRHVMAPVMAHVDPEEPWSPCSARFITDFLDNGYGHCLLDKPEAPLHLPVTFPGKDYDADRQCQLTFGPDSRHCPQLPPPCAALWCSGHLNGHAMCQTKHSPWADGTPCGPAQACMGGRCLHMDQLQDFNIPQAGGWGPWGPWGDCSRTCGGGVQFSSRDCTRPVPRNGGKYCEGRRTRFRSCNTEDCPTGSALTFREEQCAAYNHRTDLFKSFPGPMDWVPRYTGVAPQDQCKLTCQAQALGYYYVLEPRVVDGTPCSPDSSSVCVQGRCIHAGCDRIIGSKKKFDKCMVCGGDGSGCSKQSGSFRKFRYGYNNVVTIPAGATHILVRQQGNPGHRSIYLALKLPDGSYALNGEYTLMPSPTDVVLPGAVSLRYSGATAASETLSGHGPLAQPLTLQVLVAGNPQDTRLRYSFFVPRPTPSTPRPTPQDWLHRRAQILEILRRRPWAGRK
pIC50: −log10 of the molar value.
measured attribute: pIC50

Below, 4 compounds whose answers are already recorded.
>  <compound>
CCCOc1ccc(-c2ccc(C(=O)N[C@@H](CCC(=O)O)C(=O)NCc3ccccc3)cc2)cc1 [Example 15A]

>  <measured attribute>
pIC50

>  <measured>
< 4.66

$$$$
>  <compound>
CC(C)(NC(=O)[C@H](CCC(=O)O)NC(=O)c1ccc(-c2ccccc2)cc1)c1ccccc1 [Example 8TTT]

>  <measured attribute>
pIC50

>  <measured>
< 5.00

$$$$
>  <compound>
O=C(O)CC[C@H](NC(=O)c1ccc(-c2nccs2)cc1)C(=O)NCc1ccccc1 [Example 12D]

>  <measured attribute>
pIC50

>  <measured>
< 4.00

$$$$
>  <compound>
CCCCCCNC(=O)[C@H](CCC(=O)O)NC(=O)c1ccc(-c2ccccc2)cc1 [Example 8VVV]

>  <measured attribute>
pIC50

>  <measured>
7.52

$$$$

Next up:
Exercise: Which value of pIC50 has been reported for O=C(O)CC[C@H](NC(=O)c1ccc(-c2ccc(NC(=O)c3ccc(F)cc3)cc2)cc1)C(=O)NCc1ccccc1 [Example 24B] in the records?
Solution: ~5.66

---

target: purified recombinant human Aggrecanase-1 (rAgg1) (Homo sapiens); experiment: In vitro fluorescence screen for Aggrecanase-1 inhibitors; assay type: biochemical; details: Table 1; read-out: Agg1 IC50
measured attribute: IC50

Below, 2 compounds whose answers are already recorded.
>  <compound>
O=C(O)CC[C@H](NC(=O)c1ccc(-c2ccccc2)o1)C(=O)NCc1ccccc1 [Example 20]

>  <measured>
~22 µM

$$$$
>  <compound>
CC(C)(Cc1ccccc1)NC(=O)[C@H](CCC(=O)O)NC(=O)c1ccc(-c2ccccc2)cc1 [Example 8PP]

>  <measured>
< 0.03 µM

$$$$

Exercise: Which value of IC50 has been reported for O=C(O)CC[C@H](NC(=O)c1ccc(-c2ccc(NC(=O)c3ccccc3)cc2)cc1)C(=O)NCc1ccccc1 [Example 24C] in the records?
Solution: ~0.3 µM

Exercise: Which value of IC50 has been reported for O=C(O)CC[C@H](NC(=O)c1ccc(C(=O)c2ccccc2)cc1)C(=O)NCc1ccccc1 [Example 8SSSS] in the records?
Solution: > 200 µM

---

biological target: purified recombinant human Aggrecanase-1 (rAgg1) (Homo sapiens); assay: In vitro fluorescence screen for Aggrecanase-1 inhibitors; type: biochemical; conditions: Table 2; read-out: Agg1 IC50
measured attribute: IC50

Below, 3 compounds whose answers are already recorded.
>  <compound>
COc1cc(CNC(=O)[C@H](CCC(=O)O)NC(=O)c2ccc(-c3ccc(-c4ccccc4)cc3)cc2)cc(OC)c1OC [Example 17II]

>  <experimental target>
purified recombinant human Aggrecanase-1 (rAgg1) (Homo sapiens)

>  <IC50>
1 to 3 µM

$$$$
>  <compound>
COc1ccc(-c2ccc(C(=O)N[C@@H](CCC(=O)O)C(=O)NC(C)(C)Cc3ccccc3)cc2)c(OC)c1 [Example 17Q]

>  <experimental target>
purified recombinant human Aggrecanase-1 (rAgg1) (Homo sapiens)

>  <IC50>
~13 µM

$$$$
>  <compound>
CC(C)(Cc1ccc(F)cc1)NC(=O)[C@H](CCC(=O)O)NC(=O)c1ccc(-c2ccc(O)cc2)cc1 [Example 17OO]

>  <experimental target>
purified recombinant human Aggrecanase-1 (rAgg1) (Homo sapiens)

>  <IC50>
< 0.03 µM

$$$$

Exercise: Which value of IC50 has been reported for CN(C)C(=O)c1cccc(-c2ccc(C(=O)N[C@@H](CCC(=O)O)C(=O)NCC34CC5CC(CC(C5)C3)C4)cc2)c1 [Example 17W] in the records?
Solution: > 25 µM

---

Target: purified recombinant human Aggrecanase-2 (Ag2t-Phe628-Strep) (Homo sapiens, UniProt Q9UNA0)
Construct: the form used is denoted as Ag2t-Phe628-Strep (MW=41,737)
Sequence (Q9UNA0 262-628): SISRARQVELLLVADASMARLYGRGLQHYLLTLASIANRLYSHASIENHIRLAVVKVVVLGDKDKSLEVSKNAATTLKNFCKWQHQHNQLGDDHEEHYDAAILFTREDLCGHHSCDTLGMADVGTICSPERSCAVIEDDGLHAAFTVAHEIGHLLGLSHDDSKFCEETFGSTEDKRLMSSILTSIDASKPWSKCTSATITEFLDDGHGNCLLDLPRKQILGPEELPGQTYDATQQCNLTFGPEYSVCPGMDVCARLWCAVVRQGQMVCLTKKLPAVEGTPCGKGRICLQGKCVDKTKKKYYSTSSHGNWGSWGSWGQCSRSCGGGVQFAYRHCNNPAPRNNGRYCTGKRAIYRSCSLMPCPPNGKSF
Experiment: In vitro fluorescence screen for Aggrecanase-2 inhibitors
Assay type: biochemical
Conditions: Table 3; read-out: Agg 2 IC50
// reported IC50 for each item listed

Below, 3 compounds whose answers are already recorded.
>  <compound>
CC(C)(Cc1ccc(Cl)cc1)NC(=O)[C@H](CCC(=O)O)NC(=O)c1ccc(-c2cccnc2)s1 [Example 8JJJJJJJJ]

>  <IC50>
800 to 2500 nM

$$$$
>  <compound>
CC(C)(Cc1ccccc1)NC(=O)[C@H](CCC(=O)O)NC(=O)c1ccc(-c2ccc3c(c2)OCC3)cc1

>  <IC50>
270 to 800 nM

$$$$
>  <compound>
CC(C)(Cc1ccccc1)NC(=O)[C@H](CCC(=O)O)NC(=O)c1ccc(-c2ccc(Cl)cc2)s1

>  <IC50>
100 to 300 nM

$$$$

Exercise: Which value of IC50 has been reported for CC(C)(Cc1ccc(Cl)cc1)NC(=O)[C@H](CCC(=O)O)NC(=O)c1ccc(-c2cccs2)s1 in the records?
Solution: 600 to 1800 nM

Exercise: Which value of IC50 has been reported for COc1cccc(-c2ccc(C(=O)N[C@@H](CCC(=O)O)C(=O)NC(C)(C)Cc3ccc(F)cc3)s2)c1 in the records?
Solution: 100 to 300 nM

Exercise: Which value of IC50 has been reported for CC(C)(Cc1ccc(Cl)cc1)NC(=O)[C@H](CCC(=O)O)NC(=O)c1ccc(-c2ccc(Cl)s2)cc1 in the records?
Solution: 70 to 200 nM

Exercise: Which value of IC50 has been reported for CC(C)(Cc1ccccc1)NC(=O)[C@H](CCC(=O)O)NC(=O)c1ccc(-c2ccc(F)c(Cl)c2)s1 in the records?
Solution: 60 to 200 nM

Exercise: Which value of IC50 has been reported for CC(C)(Cc1ccc(F)cc1)NC(=O)[C@H](CCC(=O)O)NC(=O)c1ccc(-c2cccs2)cc1 [Example 8NNNNNNN] in the records?
Solution: < 30 nM
